Tested on: OVCAR-5 ovarian
Experiment: NCI tumour cell line growth inhibition, 48 h; in the data active means GI50 below about 0.43 µM; inactive means the rest
Answer with one of the outcomes given here: TRUE (active), FALSE (inactive)

{"STRUCTURE_STRING": "COc1ccc(-c2cn(-c3ccc(Cl)cc3)c(=S)[nH]2)cc1OC", "QUALITATIVE_LABEL": "FALSE"}
{"STRUCTURE_STRING": "Cc1ccc(Cl)cc1Nc1nc(C(F)(F)F)ccc1C(=O)N/N=C/c1c(Cl)cccc1Cl", "QUALITATIVE_LABEL": "FALSE"}
{"STRUCTURE_STRING": "COc1ccc2nc3cccc([N+](=O)[O-])c3c(NCCN(CCO)CCO)c2c1", "QUALITATIVE_LABEL": "TRUE"}

Note: attention shifts to another entry.
Query string: GET /call?item= C#CC[C@@H]1C[C@]2(C)[C@H]3CC[C@@H]4[C@H]5[C@H](C(=C)C)CC[C@]5(C(=O)O)CC[C@@]4(C)[C@]3(C)CC[C@H]2C(C)(C)[C@H]1O returns the recorded outcome of this test.
Result string: FALSE

----------
Let's look at some molecules and their measured TGI.
Test system: A498 renal
Experiment: NCI tumour cell line growth inhibition, 48 h
Answer in µM, number only, no unit symbol.

The examples below pair each entry with its known result.
{"STRUCTURE_STRING": "O=C(/C=C/c1ccccn1)c1ccccc1O", "MEASUREMENT_UNITS": "µM", "TGI": 7.14}
{"STRUCTURE_STRING": "C/C(=N\\Nc1nc2ccccc2[nH]1)c1ccncn1", "MEASUREMENT_UNITS": "µM", "TGI": 6.38}
{"STRUCTURE_STRING": "COc1cc(C(=O)NC2CCN(C)CC2)ccc1Nc1ncc2c(n1)N(C1CCCC1)CC(F)(F)C(=O)N2C", "MEASUREMENT_UNITS": "µM", "TGI": 0.272}
{"STRUCTURE_STRING": "C=C1C(=O)O[C@H]2[C@H]1CC/C(C=Nc1ccc(C(F)(F)F)cc1N)=C\\CC[C@@]1(C)O[C@@H]21", "MEASUREMENT_UNITS": "µM", "TGI": 30.8}
{"STRUCTURE_STRING": "O=C(CCCCC(=O)N/N=C\\c1ccccc1Cl)N/N=C\\c1ccccc1Cl", "MEASUREMENT_UNITS": "µM", "TGI": 38.1}

molecule Cc1c(C)c(S(=O)(=O)N(CCCCCN)OCCCN)c(C)c2c1OC(C)(C)CC2 , TGI observed: 40.9

molecule Oc1ccc(-c2c3ccccc3c(-c3ccc(OCCBr)cc3)c3ccccc23)cc1 , TGI observed: 40

molecule O=C(Nc1ncc(Cc2ccccc2)s1)c1ccc2c(c1)OCCO2 , TGI observed: 0.0687

molecule CN(C)c1ccccc1CC(c1c[nH]c2ccccc12)c1c[nH]c2ccccc12 , TGI observed: 31.1

----------
Test system: HCT-116 colon
Test: NCI tumour cell line growth inhibition, 48 h
Let's look at some compounds and their measured TGI.
Answer in µM, number only, no unit symbol.

The examples below pair each entry with its known result.
{"COMPOUND": "COc1cc(C(=O)NC2CCN(C)CC2)ccc1Nc1ncc2c(n1)N(C1CCCC1)CC(F)(F)C(=O)N2C", "VALUE_KIND": "TGI", "MEASURED_RESULT": 11.2}
{"COMPOUND": "CCCCCCCCCCCCOC1C(CNC(=O)C2OC3OC(C)(C)OC3C2NC(=O)CN2CCN(c3ccccn3)CC2)OC2OC(C)(C)OC21 (centres undefined)", "VALUE_KIND": "TGI", "MEASURED_RESULT": 3.04}
{"COMPOUND": "Cn1cc(C2=C(c3c4n(c5ccccc35)CC(CN)C4)C(=O)NC2=O)c2ccccc21 (centres undefined)", "VALUE_KIND": "TGI", "MEASURED_RESULT": 6.22}

Could you now consider this next compound?
compound O=C1Nc2cc(Cl)ccc2Oc2cc(Oc3ccccc3)ccc21 , TGI observed: 32
